Biological target: recombinant human matrix metalloproteinase 9 (rhMMP-9) (Homo sapiens, UniProt P14780)
Construct: amino acid residues from 107 to 707, consisted of the catalytic domain (Phe107 to Gly223); His-tag
Sequence (P14780 107-707): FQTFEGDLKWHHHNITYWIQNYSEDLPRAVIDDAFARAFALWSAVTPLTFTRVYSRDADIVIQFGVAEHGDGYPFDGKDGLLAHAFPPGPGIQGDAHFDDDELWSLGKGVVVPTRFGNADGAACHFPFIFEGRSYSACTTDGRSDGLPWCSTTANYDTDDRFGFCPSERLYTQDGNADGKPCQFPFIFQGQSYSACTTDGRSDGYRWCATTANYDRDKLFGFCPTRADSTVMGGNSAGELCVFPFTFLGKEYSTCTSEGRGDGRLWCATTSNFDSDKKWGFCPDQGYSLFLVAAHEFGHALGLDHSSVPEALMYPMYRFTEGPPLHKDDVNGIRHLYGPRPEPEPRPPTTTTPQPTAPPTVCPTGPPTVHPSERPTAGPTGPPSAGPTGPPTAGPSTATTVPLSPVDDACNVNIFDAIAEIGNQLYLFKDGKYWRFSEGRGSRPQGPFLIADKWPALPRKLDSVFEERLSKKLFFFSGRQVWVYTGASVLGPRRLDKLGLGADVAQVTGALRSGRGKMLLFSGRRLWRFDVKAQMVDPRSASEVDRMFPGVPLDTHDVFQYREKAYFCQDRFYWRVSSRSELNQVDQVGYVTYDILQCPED
Test: Protease activity assay of rhMMP-9 with casein as substrate
Settings: dissociation constant of EI complex; from secondary plot of slope against [I]
Reported Metric: Ki (µM)

Molecule	Unit String	Readout Value
O=c1oc2cc(O)ccc2c2ccccc12 [Uro B, urolithin B]	µM	22.5

a: O=c1oc2cc(O)ccc2c2ccc(O)cc12 [Uro A, urolithin A]
b: O=c1oc2c(O)c(O)cc3c(=O)oc4c(O)c(O)cc1c4c23 [EA, ellagic acid]
Quick one: lower Ki, a or b ? State your choice using its label. a
